Data credit: a collection of fitness landscapes (doi:10.1016/j.celrep.2020.107928)

B1: Caulobacter ParB omega fusion; a variant is named by its letters at X, in order, B8GW30 (parent)
chain: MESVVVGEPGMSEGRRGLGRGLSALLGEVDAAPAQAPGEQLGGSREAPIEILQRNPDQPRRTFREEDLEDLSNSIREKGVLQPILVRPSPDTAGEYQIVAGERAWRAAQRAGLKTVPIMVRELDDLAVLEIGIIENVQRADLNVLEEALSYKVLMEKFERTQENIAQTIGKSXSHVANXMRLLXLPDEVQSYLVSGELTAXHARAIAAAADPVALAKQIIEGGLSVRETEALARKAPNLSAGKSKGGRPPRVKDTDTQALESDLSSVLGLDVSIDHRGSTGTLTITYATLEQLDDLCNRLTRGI

# Variants of: B1
# ASSAY NOTES: one-hybrid fitness for binding parS DNA (scaled: cognate 1, non-cognate 0); higher = stronger binding
# ASSAY SETUP: with parS DNA site
In all, about 81,000 sequences were measured (“one-hybrid fitness for binding parS DNA”: median about -0.17, highest 2% from about 0.51 on). What follows is part of a selection rich in the highest values, with near analogues and random picks from the rest.
MEASURED PROPERTY: one-hybrid fitness for binding parS DNA

# MUTATION STRING, MEASURED PROPERTY, REPORTED
data = [
    ("GIRG", "one-hybrid fitness for binding parS DNA", "≤ 0.2"),
    ("RGAI", "one-hybrid fitness for binding parS DNA", "≤ 0.2"),
    ("IVNW", "one-hybrid fitness for binding parS DNA", "≤ 0.2"),
    ("VVHG", "one-hybrid fitness for binding parS DNA", "≤ 0.2"),
    ("DTLA", "one-hybrid fitness for binding parS DNA", "≤ 0.2"),
    ("TTDG", "one-hybrid fitness for binding parS DNA", "≤ 0.2"),
    ("KKRY", "one-hybrid fitness for binding parS DNA", "≤ 0.2"),
    ("RNVF", "one-hybrid fitness for binding parS DNA", "≤ 0.2"),
    ("RGWR", "one-hybrid fitness for binding parS DNA", "≤ 0.2"),
    ("RSTT", "one-hybrid fitness for binding parS DNA", 0.895),
    ("RLQA", "one-hybrid fitness for binding parS DNA", 0.616),
    ("RGRN", "one-hybrid fitness for binding parS DNA", 0.341),
    ("RYPA", "one-hybrid fitness for binding parS DNA", 0.212),
    ("RQMC", "one-hybrid fitness for binding parS DNA", 0.945),
    ("SYTS", "one-hybrid fitness for binding parS DNA", "≤ 0.2"),
    ("HCDK", "one-hybrid fitness for binding parS DNA", "≤ 0.2"),
    ("RCVG", "one-hybrid fitness for binding parS DNA", 0.991),
    ("RNGH", "one-hybrid fitness for binding parS DNA", "≤ 0.2"),
    ("RQMD", "one-hybrid fitness for binding parS DNA", "≤ 0.2"),
    ("IGNS", "one-hybrid fitness for binding parS DNA", "≤ 0.2"),
    ("RQML", "one-hybrid fitness for binding parS DNA", "≤ 0.2"),
    ("RDTT", "one-hybrid fitness for binding parS DNA", "≤ 0.2"),
]
